The measurements presented in this section are drawn from patent US4363922A.

System: S.aureus UC-570
Assay: Minimum Inhibitory Concentration, microplate broth-dilution, S. aureus UC-570
Conditions: Staphylococcus aureus, UC570, read-out: MIC S.aureus UC-570, BHI broth; sensitive strain
Parameter Measured: MIC

[[record]]
compound = "COC1CC2C=CC3C4OC2(C(C)=CC(C)C(C(C)O)OC1=O)C3C(O)C(C)C4O (centres unmarked) [U-59,761, nodusmicin]"
recorded_value = "250 µg/mL"

[[record]]
compound = "COC1CC2C=CC3C4OC2(C(C)=CC(C)C(C(C)OC(=O)c2ccc[nH]2)OC1=O)C3C(O)C(C)C4O (centres unmarked) [U-60,907, 18-O--Pyrrole-2-carbonyl]"
recorded_value = "3.9 µg/mL"

[[record]]
compound = "COC1CC2C=CC3C4OC2(C(C)=CC(C)C(C(C)O)OC1=O)C3C(O)C(C)C4OC(=O)c1cc([N+](=O)[O-])c[nH]1 (centres unmarked) [U-61,462, 9-O--4-Nitropyrrole-2-carbonyl-]"
recorded_value = "31.2 µg/mL"

[[record]]
compound = "COC1CC2C=CC3C4OC2(C(C)=CC(C)C(C(C)O)OC1=O)C3C(O)C(C)C4OC(=O)c1cccn1C (centres unmarked) [U-60,988, 9-O--N--Methylpyrrole-2-carbonyl-]"
recorded_value = "> 250 µg/mL"


Okay, now this compound:
Memo: COC1CC2C=CC3C4OC2(C(C)=CC(C)C(C(C)O)OC1=O)C3C(O)C(C)C4OC(=O)c1ccc([N+](=O)[O-])[nH]1 (centres unmarked) [U-61,427, 9-O--5-Nitropyrrole-2-carbonyl-] , reported MIC: 250 µg/mL

###

Reported MIC values follow for various molecules
Test system: S.aureus UC-76
Assay: Minimum Inhibitory Concentration, microplate broth-dilution, S. aureus UC-76
Conditions: Staphylococcus aureus, UC76, read-out: MIC S.aureus UC-76
Expressed in µg/mL, but write only the number.

Worked examples follow.
[[record]]
molecule = "COC1CC2C=CC3C4OC2(C(C)=CC(C)C(C(C)O)OC1=O)C3C(O)C(C)C4OC(=O)[C@@H]1CCCN1 (some centres unmarked)"
measurement_target = "S.aureus UC-76"
parameter_measured = "MIC"
recorded_value = 31.2

[[record]]
molecule = "COC1CC2C=CC3C4OC2(C(C)=CC(C)C(C(C)O)OC1=O)C3C(O)C(C)C4OC(=O)c1ccsc1 (centres unmarked)"
measurement_target = "S.aureus UC-76"
parameter_measured = "MIC"
recorded_value = 0.5

[[record]]
molecule = "COC1CC2C=CC3C4OC2(C(C)=CC(C)C(C(C)O)OC1=O)C3C(O)C(C)C4OC(=O)c1ccc([N+](=O)[O-])o1 (centres unmarked)"
measurement_target = "S.aureus UC-76"
parameter_measured = "MIC"
recorded_value = 31.2

[[record]]
molecule = "COC1CC2C=CC3C4OC2(C(C)=CC(C)C(C(C)O)OC1=O)C3C(OC(=O)c1ccco1)C(C)C4O (centres unmarked)"
measurement_target = "S.aureus UC-76"
parameter_measured = "MIC"
recorded_value = 500

[[record]]
molecule = "COC1CC2C=CC3C4OC2(C(C)=CC(C)C(C(C)O)OC1=O)C3C(O)C(C)C4OC(=O)c1ccncc1 (centres unmarked)"
measurement_target = "S.aureus UC-76"
parameter_measured = "MIC"
recorded_value = 250


Memo: COC1CC2C=CC3C4OC2(C(C)=CC(C)C(C(C)O)OC1=O)C3C(O)C(C)C4OC(=O)c1cccs1 (centres unmarked) , reported MIC: 3.9

Memo: COC1CC2C=CC3C4OC2(C(C)=CC(C)C(C(C)O)OC1=O)C3C(O)C(C)C4OC(=O)c1ccco1 (centres unmarked) , reported MIC: 7.8

Memo: COC1CC2C=CC3C4OC2(C(C)=CC(C)C(C(C)O)OC1=O)C3C(O)C(C)C4OC(=O)c1cccnc1 (centres unmarked) , reported MIC: 250

###

Tested on: S.aureus UC-746
Assay: Minimum Inhibitory Concentration, microplate broth-dilution, S. aureus UC-746
Conditions: Staphylococcus aureus, UC746, read-out: MIC S.aureus UC-746
Parameter Measured: log10 MIC (log10 of the value in µg/mL)
Recall that a logarithmic scale is used here: each number is log10 of MIC in µg/mL.

Worked examples follow.
[[record]]
compound = "COC1CC2C=CC3C4OC2(C(C)=CC(C)C(C(C)O)OC1=O)C3C(O)C(C)C4OC(=O)c1cccs1 (stereo not drawn)"
measurement_target = "S.aureus UC-746"
recorded_value = 0.59

[[record]]
compound = "COC1CC2C=CC3C4OC2(C(C)=CC(C)C(C(C)O)OC1=O)C3C(O)C(C)C4OC(=O)c1ccc(C)[nH]1 (stereo not drawn)"
measurement_target = "S.aureus UC-746"
recorded_value = 1.49


Memo: COC1CC2C=CC3C4OC2(C(C)=CC(C)C(C(C)O)OC1=O)C3C(O)C(C)C4OC(=O)c1cccnc1 (stereo not drawn) , reported log10 MIC: 2.40

Memo: COC1CC2C=CC3C4OC2(C(C)=CC(C)C(C(C)O)OC1=O)C3C(O)C(C)C4OC(=O)c1ccc([N+](=O)[O-])o1 (stereo not drawn) , reported log10 MIC: 1.80

Memo: COC1CC2C=CC3C4OC2(C(C)=CC(C)C(C(C)O)OC1=O)C3C(O)C(C)C4OC(=O)c1ccsc1 (stereo not drawn) , reported log10 MIC: -0.30

###

Test system: S.pyrogenes UC-152
Assay: Minimum Inhibitory Concentration, microplate broth-dilution, S. pyrogenes UC-152
Conditions: read-out: MIC S.pyrogenes UC-152
Reported MIC values follow for various compounds

Worked examples follow.
[[record]]
compound = "COC1CC2C=CC3C4OC2(C(C)=CC(C)C(C(C)O)OC1=O)C3C(O)C(C)C4OC(=O)c1ccncc1 (stereo not drawn)"
parameter_measured = "MIC"
recorded_value = "> 250 µg/mL"

[[record]]
compound = "COC1CC2C=CC3C4OC2(C(C)=CC(C)C(C(C)O)OC1=O)C3C(O)C(C)C4OC(=O)c1ccco1 (stereo not drawn)"
parameter_measured = "MIC"
recorded_value = "> 250 µg/mL"

[[record]]
compound = "COC1CC2C=CC3C4OC2(C(C)=CC(C)C(C(C)O)OC1=O)C3C(O)C(C)C4OC(=O)c1cnccn1 (stereo not drawn)"
parameter_measured = "MIC"
recorded_value = "> 125 µg/mL"

[[record]]
compound = "COC1CC2C=CC3C4OC2(C(C)=CC(C)C(C(C)O)OC1=O)C3C(O)C(C)C4OC(=O)[C@@H]1CCCN1 (stereo partly drawn)"
parameter_measured = "MIC"
recorded_value = "> 250 µg/mL"

[[record]]
compound = "COC1CC2C=CC3C4OC2(C(C)=CC(C)C(C(C)O)OC1=O)C3C(O)C(C)C4OC(=O)c1ccccn1 (stereo not drawn)"
parameter_measured = "MIC"
recorded_value = "> 250 µg/mL"


Record for COC1CC2C=CC3C4OC2(C(C)=CC(C)C(C(C)O)OC1=O)C3C(OC(=O)c1ccco1)C(C)C4O (stereo not drawn) under target or system S.pyrogenes UC-152: MIC reported as > 500 µg/mL
